target: 17β-hydroxysteroid dehydrogenase type 3 (17β-HSD type 3) (Homo sapiens); construct: expressed in transfected cells; host or cells: MCF-7; experiment: Inhibition of 17β-HSD type 3 in MCF-7 cells stably expressing the isoenzyme (tritium labeled androstenedione conversion, HPLC); assay type: cell-based; conditions: MCF7; 10 μM test compound; MCF-7 cells expressing 17β-HSD type 3; 2 nM tritium labeled androstenedione; read-out: % Inhibition HSD3 10 μM
Sequence (P37058 whole entry): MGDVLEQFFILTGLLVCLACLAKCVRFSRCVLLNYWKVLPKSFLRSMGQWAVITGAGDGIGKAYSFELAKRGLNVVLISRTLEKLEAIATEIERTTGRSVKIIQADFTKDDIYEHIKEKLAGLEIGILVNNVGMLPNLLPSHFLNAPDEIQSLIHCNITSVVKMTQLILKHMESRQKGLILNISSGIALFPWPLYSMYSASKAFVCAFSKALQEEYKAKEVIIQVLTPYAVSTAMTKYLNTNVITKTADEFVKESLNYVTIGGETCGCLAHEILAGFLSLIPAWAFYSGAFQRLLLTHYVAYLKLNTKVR
Reported inhibition at 10 µM values for a set of compounds
experimental_readout: inhibition at 10 µM (%)

• COCCn1c(-c2cccs2)nc2sc3c(c2c1=O)CCCC3=O [No. 75] = 17
• COc1cc(-c2nc3sc4c(c3c(=O)n2Cc2ccco2)CCCC4)cc(OC)c1OC [No. 119] = 19.1
• CCCCn1c(-c2cc(OC)c(OC)c(OC)c2)nc2sc3c(c2c1=O)CCC(Br)(Br)C3=O [No. 88] = 23.3
• COc1cc(-c2nc3sc4c(c3c(=O)n2Cc2ccccc2)CCC(Br)(Br)C4=O)c(Br)c(OC)c1OC [No. 48] = 23.4
• COc1cc(-c2nc3sc4c(c3c(=O)n2CC2CCCO2)CCCC4=O)cc(OC)c1OC (stereo not drawn) [No. 131] = 80.1
• CCC(C)Cn1c(-c2cc(OC)c(OC)c(OC)c2Cl)nc2sc3c(c2c1=O)CCC(Cl)C3=O (stereo not drawn) [No. 141] = 22.7

###

target: 17β-hydroxysteroid dehydrogenase type 2 (17β-HSD type 2) (Homo sapiens, UniProt P37059); construct: expressed in transfected cells; host or cells: MCF-7; test: Inhibition of 17β-HSD type 2 in MCF-7 cells stably expressing the isoenzyme (tritium labeled estradiol conversion, HPLC); format: cell-based; conditions: MCF7; 1 μM test compound; MCF-7 cells expressing 17β-HSD type 2; 2 nM tritium labeled estradiol; read-out: % Inhibition HSD2 1 μM
Sequence (P37059 whole entry): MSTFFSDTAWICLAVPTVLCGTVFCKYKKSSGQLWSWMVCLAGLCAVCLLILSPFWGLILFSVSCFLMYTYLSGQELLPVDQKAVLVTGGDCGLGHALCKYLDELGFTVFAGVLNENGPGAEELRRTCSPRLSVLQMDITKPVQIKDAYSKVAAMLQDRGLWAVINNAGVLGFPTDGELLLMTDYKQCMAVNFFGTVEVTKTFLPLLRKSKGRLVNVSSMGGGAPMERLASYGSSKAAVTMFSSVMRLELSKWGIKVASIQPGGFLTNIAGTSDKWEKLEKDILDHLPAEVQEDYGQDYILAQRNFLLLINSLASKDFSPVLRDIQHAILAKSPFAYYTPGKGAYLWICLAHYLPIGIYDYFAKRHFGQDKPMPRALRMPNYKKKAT
Reported inhibition at 1 µM values for a set of molecules
experimental_readout: inhibition at 1 µM (%)

- CCC(C)Cn1c(-c2cc(OC)c(OC)c(OC)c2Cl)nc2sc3c(c2c1=O)CCC(Cl)(Cl)C3=O (stereo not drawn): 6.2
- Cc1nc2sc3c(c2c(=O)n1-c1ccccc1)CCC(Br)(Br)C3=O: 3.5
- COc1cc(-c2nc3sc4c(OC(C)=O)cccc4c3c(=O)n2Cc2ccccc2)c(Br)c(OC)c1OC: 32.4
- O=c1c2c3c(sc2nc(-c2cccs2)n1Cc1ccccc1)CCCC3: 25.7
- CCCCn1c(-c2cccs2)nc2sc3c(c2c1=O)CCCC3: 18.5
- COC(=O)c1nc2sc3c(c2c(=O)n1Cc1ccccc1)CCCC3=O: 9.8
- COc1cc(-c2nc3sc4c(c3c(=O)n2Cc2ccco2)CCCC4=O)cc(OC)c1OC: 19.9
- CCCCn1c(-c2cc(OC)c(OC)c(OC)c2)nc2sc3c(O)c(Br)ccc3c2c1=O: 16.1
- CC(=O)OCc1nc2sc3c(c2c(=O)n1Cc1ccccc1)CCCC3: 8.5
- CCC(C)Cn1c(-c2cc(OC)c(OC)c(OC)c2Br)nc2sc3c(c2c1=O)CCC(Br)(Br)C3=O (stereo not drawn): -4.9
- CCCCn1c(-c2cc(OC)c(OC)c(OC)c2)nc2sc3c(O)cccc3c2c1=O: 31.2
- CCSC1=C(C=O)CCc2c1sc1nc(-c3ccc(OC)cc3)n(Cc3ccccc3)c(=O)c21: 5
- COc1ccc(-c2nc3sc4c(c3c(=O)n2Cc2ccccc2)CCCC4=O)cc1: 19.5
- COc1cc(-c2nc3sc4c(O)cccc4c3c(=O)n2CC(C)C)c(Br)c(OC)c1OC: 19.7
- O=C1c2sc3nc(-c4ccccc4)n(Cc4ccccc4)c(=O)c3c2CCC1Br (stereo not drawn): 22.5

meta.source: patent US7524853B2
